Cited source for all entries: patent US20250388574A1

Each item that follows carries a reported EC50.
- target.of.assay: hTREM2 (Homo sapiens, UniProt Q9NZC2)
- Sequence (Q9NZC2 19-230): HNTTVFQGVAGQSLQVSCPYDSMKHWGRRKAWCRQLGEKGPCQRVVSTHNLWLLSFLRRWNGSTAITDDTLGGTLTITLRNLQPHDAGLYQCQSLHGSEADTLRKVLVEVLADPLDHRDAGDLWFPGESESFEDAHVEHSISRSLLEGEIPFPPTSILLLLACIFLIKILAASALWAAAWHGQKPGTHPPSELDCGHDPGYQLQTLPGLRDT
- Sequence (O43914 22-113 partner): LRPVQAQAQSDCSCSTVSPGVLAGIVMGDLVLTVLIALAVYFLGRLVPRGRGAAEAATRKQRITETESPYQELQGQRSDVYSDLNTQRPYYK
- protocol.text: Phospho-Syk AlphaScreen/AlphaLISA assay in TREM2 and DAP12 overexpressing HEK293 cells (Example A1)
- Assay type: cell-based
- Parameters: expressed in transfected cells
- study.conditions: HEK293 cells, read-out: hTREM2 EC50
measurement.name: EC50

molecule=Cn1cc([C@H]2CN(c3cc4nc(C5CC5)n(C)c(=O)c4c(-c4ccc(Cl)cc4F)n3)CCO2)cn1 reported="50 to 500 nM"
molecule="Cc1nc2cc(N3CCC(C(F)F)C3)nc(-c3ccc(Cl)cc3F)c2c(=O)n1C (stereo not drawn)" reported="50 to 500 nM"
molecule="Cc1nc2cc(N3CCO[C@@H](c4cccc(C(F)(F)F)c4)C3)nc(-c3ccc(Cl)cc3F)c2c(=O)n1C (single isomer, unassigned)" reported="500 to 3000 nM"
molecule="Cc1nc2cc(N3CCO[C@H]([C@H]4CCO4)C3)nc(-c3ccc(Cl)cc3F)c2c(=O)n1C (single isomer, unassigned)" reported="500 to 3000 nM"
molecule="CCn1c(C)nc2cc(N3CCO[C@H](c4noc(C)n4)C3)nc(-c3ccc(Cl)cc3F)c2c1=O [Example 147]" reported="50 to 500 nM"
molecule="Cc1nc2cc(N3CCOC(C4CCC4)C3)nc(-c3ccc(Cl)cc3F)c2c(=O)n1C (stereo not drawn)" reported="500 to 3000 nM"
molecule="Cc1nc2cc(N3CCCC(C)(c4ccccc4)C3)nc(-c3ccc(Cl)cc3F)c2c(=O)n1C (stereo not drawn)" reported="3000 to 100000 nM"
molecule="Cc1nc2cc(N3CCO[C@H](c4noc(C5CC5)n4)C3)nc(-c3ccc(Cl)cc3F)c2c(=O)n1C (single isomer, unassigned) [Example 85]" reported="3000 to 100000 nM"
molecule=Cc1nc2cc(N3CCO[C@H](c4cnn(C)c4)C3)nc(-c3ccccc3F)c2c(=O)n1C reported="3000 to 100000 nM"
molecule=Cc1nc2cc(N3CCO[C@H](c4ccnc(C(F)(F)F)c4)C3)nc(-c3ccc(Cl)cc3F)c2c(=O)n1C reported="500 to 3000 nM"
molecule=Cc1nc2cc(N3CCO[C@@H](c4cnn(C)c4)C3)nc(-c3ccc(Cl)cc3)c2c(=O)n1C reported="50 to 500 nM"
molecule=Cc1nc2cc(N3CCC[C@@H](N(C)C)C3)nc(-c3ccc(Cl)cc3F)c2c(=O)n1C reported="3000 to 100000 nM"
molecule="Cc1cc([C@H]2CN(c3cc4nc(C)n(C)c(=O)c4c(-c4ccc(Cl)cc4F)n3)CCO2)cc(C)n1 (single isomer, unassigned)" reported="< 50 nM"
molecule="Cc1nc2cc(N3C[C@@H](c4cnn(C)c4)OC[C@H]3C)nc(-c3ccc(Cl)cc3F)c2c(=O)n1C (single isomer, unassigned)" reported="500 to 3000 nM"
molecule=CCCn1c(C)nc2cc(N3CCO[C@@H](C(F)(F)F)C3)nc(-c3ccc(Cl)cc3F)c2c1=O reported="500 to 3000 nM"
molecule=CCCn1c(C)nc2cc(N3CCO[C@@H](CF)C3)nc(-c3ccc(Cl)cc3F)c2c1=O reported="500 to 3000 nM"
molecule="Cc1nc2cc([C@H]3CCO[C@@H](c4cccnc4)C3)nc(-c3ccc(Cl)cc3F)c2c(=O)n1C (single isomer, unassigned)" reported="50 to 500 nM"
molecule="Cc1nnc([C@H]2CN(c3cc4nc(C)n(C)c(=O)c4c(-c4ccc(Cl)cc4F)n3)CCO2)o1 (single isomer, unassigned) [Example 59]" reported="50 to 500 nM"
molecule="Cc1cc([C@@H]2C[C@H](c3cc4nc(C)n(C)c(=O)c4c(-c4ccc(Cl)cc4F)n3)CCO2)ccn1 (single isomer, unassigned)" reported="500 to 3000 nM"
molecule=Cc1nc2cc(N3CCO[C@@H](c4cnn(C5COC5)c4)C3)nc(-c3ccc(Cl)cc3F)c2c(=O)n1C reported="< 50 nM"
molecule="Cc1ccc([C@H]2CN(c3cc4nc(C)n(C)c(=O)c4c(-c4ccc(Cl)cc4F)n3)CCO2)cn1 (single isomer, unassigned)" reported="50 to 500 nM"
